# target of assay: Ba/F3 cells, ABL1 T315I (Homo sapiens, UniProt P00519, T315I, cells depend on it)
# assay info: 96-well XTT cell survival assay, Ba/F3 ABL1 T315I
# Format: cell-based
# reported conditions: 72 hours, read-out: ABL1 T315I XTT [Ba/F3] IC50
reported property: GI50

Before answering, review these 5 worked examples.
COc1ccccc1-c1n[nH]c2ncc(-c3cccc(C(O)C(=O)N4CCC[C@@H]4CO)c3)cc12 (stereo partly drawn) | < 1000 nM
COc1ccccc1-c1n[nH]c2ncc(-c3cccc(C(O)C(=O)N(C)CCN(C)C)n3)cc12 (stereo not drawn) | > 1000 nM
Cc1n[nH]c(C)c1-c1c[nH]c2ncc(-c3cncc(C(O)C(=O)N(C)C)c3)cc12 (stereo not drawn) | > 1000 nM
COc1ccccc1-c1n[nH]c2ncc(-c3cccc(C(N)C(=O)N(C)C)c3)cc12 (stereo not drawn) | < 1000 nM
COc1ccccc1-c1n[nH]c2ncc(-c3cccc(C(C)(O)C(=O)N(C)C)c3)cc12 (stereo not drawn) | > 1000 nM

Switching to the query record.
*Q* Reported GI50 for Ba/F3 cells, ABL1 T315I (Homo sapiens, UniProt P00519, T315I, cells depend on it), given CN(C)C(=O)C(O)c1cncc(-c2cnc3[nH]cc(-c4ccccc4)c3c2)c1 (stereo not drawn) ?
*A* < 1000 nM

====

# target of assay: Ba/F3 cells, ABL1 T315I (Homo sapiens, UniProt P00519, T315I, cells depend on it)
# assay info: 96-well XTT cell survival assay, Ba/F3 ABL1 T315I
# Type: cell-based
# reported conditions: 72 hours, read-out: ABL1 T315I XTT [Ba/F3] IC50
For each record, write down the corresponding GI50.

Solved cases below.
CN(C)C(=O)C(O)c1cncc(-c2cnc3[nH]cc(-c4ccncc4)c3c2)c1 (centres unmarked) | > 1000 nM
CN(C)C(=O)C(O)c1cncc(-c2cnc3[nH]cc(-c4ccnn4CCO)c3c2)c1 (centres unmarked) | > 1000 nM
COc1ccccc1-c1n[nH]c2ncc(-c3cccc(C(C)C(=O)N(C)C4CCN(C)C4)c3)cc12 (centres unmarked) | > 1000 nM
CNC(C(=O)N1CCC(N(C)C)C1)c1cccc(-c2cnc3[nH]nc(-c4ccccc4OC)c3c2)c1 (centres unmarked) | > 1000 nM
CNC(C(=O)N(C)C)c1cccc(-c2cnc3[nH]nc(-c4ccccc4OC)c3c2)c1 (centres unmarked) | > 1000 nM
Cc1n[nH]cc1-c1c[nH]c2ncc(-c3cncc(C(O)C(=O)N(C)C)c3)cc12 (centres unmarked) | > 1000 nM
COc1ccccc1-c1c[nH]c2ncc(-c3cncc(C(O)C(=O)N(C)C(C)C)c3)cc12 (centres unmarked) | < 1000 nM
COc1ccccc1-c1n[nH]c2ncc(-c3cccc(C(O)C(N)=O)c3)cc12 (centres unmarked) | < 1000 nM
CN(C)C(=O)C(O)c1cncc(-c2cnc3[nH]cc(-c4ccc5c(c4)OCO5)c3c2)c1 (centres unmarked) | > 1000 nM
COc1ccccc1-c1c[nH]c2ncc(-c3cnc(N)c(C(O)C(=O)N(C)C)c3)cc12 (centres unmarked) | < 1000 nM

Need GI50 for each of these compounds.
1. COc1ccccc1-c1n[nH]c2ncc(-c3cccc(C(O)C(=O)N(C)CCNC(C)(C)C)c3)cc12 (centres unmarked)
2. Cc1cccc(-c2c[nH]c3ncc(-c4cncc(C(O)C(=O)N(C)C)c4)cc23)c1 (centres unmarked)

*A*
1. < 1000 nM
2. < 1000 nM
